Values were extracted from patent US10463644B2.

Recorded viability at 10 µM, one value per entry.
Tested on: cancer stem cells
Experiment: Survival rate of cancer stem cells after test compound is added (flow cytometry, Annexin V-FITC/PI, clinical specimen)
Assay type: cell-based, patient
Settings: Homo sapiens, 18 h, Skin cancer; 10.0 μM

compound: CC1=C2CC[C@@](C)(O)[C@@H]2[C@H]2OC(=O)[C@@H](CN(C)C)[C@@H]2CC1 [Compound 23]
viability at 10 µM / %: 85
//
compound: C=C1C(=O)O[C@@H]2[C@@H]3[C@@H](CCC34CC4)C3(CC[C@@H]12)CC3 [Compound 26]
viability at 10 µM / %: 86
//
compound: CCOC(=O)[C@@H]1CCCN1C[C@@H]1C(=O)O[C@H]2[C@H]1CCC1(CC1)[C@@H]1CCC3(CC3)[C@H]21 [Compound 29]
viability at 10 µM / %: 82
//
compound: C=C1C(=O)O[C@@H]2[C@@H]3[C@@H](CC[C@@]3(C)O)[C@](C)(O)CC[C@@H]12 [Compound 49]
viability at 10 µM / %: 85
//
compound: C=C1C(=O)O[C@H]2[C@H]1CC[C@@](C)(OC)C1CC[C@@](C)(O)[C@@H]12 (stereo partly drawn) [Compound 47]
viability at 10 µM / %: 84
//
compound: C=C1C(=O)O[C@@H]2[C@H]3C(C)=CC[C@@]34O[C@@]4(C)CC[C@@H]12 [Compound 50]
viability at 10 µM / %: 57

###

Tested on: cancer cells
Experiment: Survival rate of cancer cells after test compound is added (flow cytometry, Annexin V-FITC/PI, clinical specimen)
Type: cell-based, patient
Conditions: Homo sapiens, 18 h, Colorectal cancer; 10.0 μM; read-out: Survival rate (%) All cells (Stem cells and ordinary cells)
Entries annotated with measured viability at 10 µM
parameter-measured: viability at 10 µM (%)

structure-string: CC1=C2CC[C@@](C)(O)[C@@H]2[C@H]2OC(=O)[C@@H](CN(C)C)[C@@H]2CC1
parameter-measured: viability at 10 µM
observed-value: 88
--
structure-string: [2H][C@@]1(CN(C)C)C(=O)O[C@@H]2[C@@H]3[C@@H](CCC34CC4)C3(CC[C@H]21)CC3
parameter-measured: viability at 10 µM
observed-value: 93

###

System: cancer cells
Assay: Survival rate of cancer cells after test compound is added (flow cytometry, Annexin V-FITC/PI, clinical specimen)
Assay type: cell-based, patient
Details: Homo sapiens, 18 h, Malignant melanoma; 20.0 μM; read-out: Survival rate (%) All cells (Stem cells and ordinary cells)

structure-string: C=C1C(=O)O[C@H]2[C@H]1CCC(C)=C1CC[C@@](C)(OC(=O)CCCc3cn(CCCCCCO)nn3)[C@@H]12
endpoint-unit: %
viability at 20 µM: 56
//
structure-string: C=C1C(=O)O[C@@H]2[C@H]3C(C)=CC[C@@]34O[C@@]4(C)CC[C@@H]12
endpoint-unit: %
viability at 20 µM: 66
//
structure-string: C=C1C(=O)O[C@@H]2[C@@H]3[C@@H](CCC34CC4)C3(CC[C@@H]12)CC3
endpoint-unit: %
viability at 20 µM: 86
//
structure-string: [2H][C@@]1(CN(C)C)C(=O)O[C@@H]2[C@@H]3[C@@H](CCC34CC4)C3(CC[C@H]21)CC3
endpoint-unit: %
viability at 20 µM: 89
//
structure-string: CCOC(=O)[C@@H]1CCCN1C[C@@H]1C(=O)O[C@H]2[C@H]1CCC1(CC1)[C@@H]1CCC3(CC3)[C@H]21
endpoint-unit: %
viability at 20 µM: 87
